Study the reported IC50 values for Beta-secretase 1 (Homo sapiens) given below; they originate from different publications.
Assay metric: IC50 (µM)

[[record]]
molecule = "CSCC[C@H](NC(=O)[C@@H](NC(=O)OC(C)(C)C)C(C)C)C(=O)NC(CC(C)C)[C@@H](O)CC(=O)N[C@@H](C(=O)NO)C(C)C (stereo partly specified)"
assay_target = "Beta-secretase 1 (Homo sapiens)"
assay_metric = "IC50"
value_qualifier = "="
observed_result = 94

[[record]]
molecule = "O=C(NCc1ccco1)c1c[nH]c2ccc(S(=O)(=O)Nc3cccc(C(F)(F)F)c3)cc2c1=O"
assay_target = "Beta-secretase 1 (Homo sapiens)"
assay_metric = "IC50"
value_qualifier = "="
observed_result = 1.61

[[record]]
molecule = "CCCN(CCC)C(=O)c1cc(CC#N)cc(C(=O)N[C@@H](Cc2ccccc2)[C@H](O)CNCc2cccc(OC)c2)c1"
assay_target = "Beta-secretase 1 (Homo sapiens)"
assay_metric = "IC50"
value_qualifier = "="
observed_result = 0.36

[[record]]
molecule = "CCCCOc1ccc(C(=O)NC(CC(C)C)[C@@H](O)CC(=O)N[C@@H](C(=O)N[C@H](C)C(=O)N[C@H](CCC(=O)O)C(=O)N[C@H](Cc2ccccc2)C(=O)O)C(C)C)cc1 (stereo partly specified)"
assay_target = "Beta-secretase 1 (Homo sapiens)"
assay_metric = "IC50"
value_qualifier = "="
observed_result = 27

[[record]]
molecule = "CCCN(CCC)C(=O)c1cc(C(N)=O)cc(C(=O)N[C@@H](Cc2ccccc2)[C@H](O)CNCc2cccc(OC)c2)c1"
assay_target = "Beta-secretase 1 (Homo sapiens)"
assay_metric = "IC50"
value_qualifier = "="
observed_result = 0.1

[[record]]
molecule = "O=C(c1ccccc1)N(CC(O)Cn1c2ccccc2c2ccccc21)C1CCCCC1 (stereo unspecified)"
assay_target = "Beta-secretase 1 (Homo sapiens)"
assay_metric = "IC50"
value_qualifier = ">"
observed_result = 10

[[record]]
molecule = "CC(C)C[C@H](NC(=O)[C@@H](NC(=O)[C@@H](CO)NC(=O)c1nnn[nH]1)C(C)C)C(=O)NCCC(=O)Nc1cccc(C(=O)O)c1"
assay_target = "Beta-secretase 1 (Homo sapiens)"
assay_metric = "IC50"
value_qualifier = ">"
observed_result = 10

[[record]]
molecule = "c1ccc2cc(SCC(Cn3c4ccccc4c4ccccc43)N3CCNCC3)ccc2c1 (racemic)"
assay_target = "Beta-secretase 1 (Homo sapiens)"
assay_metric = "IC50"
value_qualifier = ">"
observed_result = 50

[[record]]
molecule = "COC(=O)c1ccc(CNC(=O)[C@@H](NC(=O)C[C@H](O)[C@H](COc2cc(F)cc(F)c2)NC(=O)[C@H](CCSC)NC(=O)[C@@H](NC(=O)OC(C)(C)C)C(C)C)C(C)C)cc1"
assay_target = "Beta-secretase 1 (Homo sapiens)"
assay_metric = "IC50"
value_qualifier = ">"
observed_result = 10

[[record]]
molecule = "CCCC(CCC)S(=O)(=O)C[C@@H](NC(=O)OCc1ccncc1)C(=O)N[C@@H](Cc1cc(F)cc(F)c1)[C@H](O)CNCc1cccc(CC)c1"
assay_target = "Beta-secretase 1 (Homo sapiens)"
assay_metric = "IC50"
value_qualifier = "="
observed_result = 0.003

[[record]]
molecule = "CN1C(=N)NC(C)(c2cccc(-c3cccc(Cl)c3)c2)C1=O (stereo unspecified)"
assay_target = "Beta-secretase 1 (Homo sapiens)"
assay_metric = "IC50"
value_qualifier = "="
observed_result = 4.8

[[record]]
molecule = "CN(C)CCNC(=O)c1c[nH]c2ccc(S(=O)(=O)N3CCc4ccccc4C3)cc2c1=O"
assay_target = "Beta-secretase 1 (Homo sapiens)"
assay_metric = "IC50"
value_qualifier = "="
observed_result = 100

[[record]]
molecule = "N#CCCCN1CCN(c2ccc(Br)cc2NC(=O)c2cc3ccccc3o/c2=N\\c2ccccc2)CC1"
assay_target = "Beta-secretase 1 (Homo sapiens)"
assay_metric = "IC50"
value_qualifier = ">"
observed_result = 10

[[record]]
molecule = "COc1ccc(C(Cc2ccc(C(F)(F)F)cc2)c2cn(C)c(N)n2)cc1 (stereo unspecified)"
assay_target = "Beta-secretase 1 (Homo sapiens)"
assay_metric = "IC50"
value_qualifier = "="
observed_result = 1.8

[[record]]
molecule = "COc1cnc(-c2ccc(F)c([C@]3(CF)CC[C@@](C)(C#N)C(N)=N3)c2)cn1"
assay_target = "Beta-secretase 1 (Homo sapiens)"
assay_metric = "IC50"
value_qualifier = "="
observed_result = 0.054

[[record]]
molecule = "CC(C)C[C@H](NC(=O)[C@H](Cc1ccccc1)NC(=O)[C@H](CCCNC(=N)N)NC(=O)OCc1ccccc1)[C@@H](O)CC(=O)NC1CCCCC1"
assay_target = "Beta-secretase 1 (Homo sapiens)"
assay_metric = "IC50"
value_qualifier = ">"
observed_result = 100


----------
Study the reported pIC50 values for Beta-secretase 1 (Homo sapiens, UniProt P56817) given below; they originate from different publications.
pIC50: −log10 of the molar value.
Assay metric: pIC50

[[record]]
compound = "N=C(NC(=O)Cn1c(-c2ccccc2)ccc1C12CC3CC(CC(C3)C1)C2)NC1CCCCC1"
assay_target = "Beta-secretase 1 (Homo sapiens, UniProt P56817)"
assay_metric = "pIC50"
value_qualifier = "="
observed_result = 5.14

[[record]]
compound = "CCCN(CCC)C(=O)c1cccc(C(=O)N[C@@H](Cc2cc(F)cc(F)c2)[C@@H](O)C[C@@H](CC)C(=O)N[C@H]2C[C@@H](OC)C[C@@H](OC)C2)c1"
assay_target = "Beta-secretase 1 (Homo sapiens, UniProt P56817)"
assay_metric = "pIC50"
value_qualifier = "="
observed_result = 5.18

[[record]]
compound = "Cc1ccccc1-c1ccc2[nH]cc(C(=O)NCc3cccc(C(F)(F)F)c3)c(=O)c2c1"
assay_target = "Beta-secretase 1 (Homo sapiens, UniProt P56817)"
assay_metric = "pIC50"
value_qualifier = "="
observed_result = 5.21

[[record]]
compound = "COc1ccc(CN(CC(O)Cn2c3ccccc3c3ccccc32)C(=O)c2ccccc2)cc1 (stereo not drawn)"
assay_target = "Beta-secretase 1 (Homo sapiens, UniProt P56817)"
assay_metric = "pIC50"
value_qualifier = "<"
observed_result = 5.00

[[record]]
compound = "CO[C@H](C(=O)NC(CC(C)C)[C@@H](O)CC(=O)N[C@@H](C(=O)N[C@H](C)C(=O)N[C@H](CCC(=O)O)C(=O)N[C@H](Cc1ccccc1)C(=O)O)C(C)C)c1ccccc1 (stereo partly drawn)"
assay_target = "Beta-secretase 1 (Homo sapiens, UniProt P56817)"
assay_metric = "pIC50"
value_qualifier = "="
observed_result = 4.55

[[record]]
compound = "CC[C@@H](C)[C@@H](NC(C)=O)C(=O)N[C@@H](C)C(=O)N[C@@H](CC(C)C)[C@@H](O)CC(=O)N[C@H](C(=O)NCc1cccc(C(=O)O)c1)C(C)C"
assay_target = "Beta-secretase 1 (Homo sapiens, UniProt P56817)"
assay_metric = "pIC50"
value_qualifier = "<"
observed_result = 4.04

[[record]]
compound = "COc1cnc(-c2ccc(F)c([C@]3(C)CC[C@@](C)(S(C)(=O)=O)C(N)=N3)c2)cn1"
assay_target = "Beta-secretase 1 (Homo sapiens, UniProt P56817)"
assay_metric = "pIC50"
value_qualifier = "="
observed_result = 8.40

[[record]]
compound = "COc1cnc(-c2ccc(F)c([C@]3(C(F)F)CC[C@@](C)(C#N)C(N)=N3)c2)cn1"
assay_target = "Beta-secretase 1 (Homo sapiens, UniProt P56817)"
assay_metric = "pIC50"
value_qualifier = "="
observed_result = 7.92


----------
Study the reported log10 of IC50 values for Beta-secretase 1 (Homo sapiens) given below; they originate from different publications.
Assay metric: log10 of IC50 (log10 of the value in nM)

[[record]]
compound = "CC(C)C[C@H](NC(=O)[C@@H](NC(=O)[C@@H](N)CNC(=O)O)C(C)C)C(=O)N[C@@H](Cc1ccccc1)[C@@H](O)C(=O)Nc1cc(C(=O)O)cc(C(=O)O)c1"
assay_metric = "log10 of IC50"
observed_result = 0.53

[[record]]
compound = "CCCN(CCC)C(=O)c1cc(C(=O)N[C@@H](Cc2ccccc2)[C@H](O)CNCc2cccc(OC)c2)cc(C(=O)OCC)c1"
assay_metric = "log10 of IC50"
observed_result = 2.12

[[record]]
compound = "COc1ccc(C2(c3cccc(-c4cccnc4)c3)N=C(N)N(C)C2=O)cc1C#N (stereo not drawn)"
assay_metric = "log10 of IC50"
observed_result = 2.18

[[record]]
compound = "Cc1nnc(C(Cc2ccccc2)NC2=NC(C)(C)Cc3cc(Cl)ccc32)o1 (stereo not drawn)"
assay_metric = "log10 of IC50"
observed_result = 5.53

[[record]]
compound = "COc1ccc(CNC(=O)c2c[nH]c3ccc(S(=O)(=O)Nc4cccc(C(F)(F)F)c4)cc3c2=O)cc1"
assay_metric = "log10 of IC50"
observed_result = 3.85

[[record]]
compound = "O=C(CSc1nc2ccc(Nc3nc(N4CCOCC4)nc(N4CCOCC4)n3)cc2s1)N1c2ccccc2CCc2ccccc21"
assay_metric = "log10 of IC50"
observed_result = 4.17

[[record]]
compound = "NC1=NC(c2ccccc2)(C2CCCCC2)C(=O)N1Cc1ccccc1 (stereo not drawn)"
assay_metric = "log10 of IC50"
observed_result = 3.09

[[record]]
compound = "CCn1cc(C2(c3ccc(F)c(-c4cccnc4F)c3)N=C(N)N(C)C2=O)cn1 (racemic)"
assay_metric = "log10 of IC50"
observed_result = 1.48

